Record form. Attribute: OD450. Fill in for each entry.
Biological target: T1, murine CD22 protein (ACROBiosystems, SI2-M52Ha) (murine, UniProt P35329 22-708)
T1 construct: extracellular domain; also called murine CD22-ECD; murine CD22-ECD-His
T1 sequence (looked up): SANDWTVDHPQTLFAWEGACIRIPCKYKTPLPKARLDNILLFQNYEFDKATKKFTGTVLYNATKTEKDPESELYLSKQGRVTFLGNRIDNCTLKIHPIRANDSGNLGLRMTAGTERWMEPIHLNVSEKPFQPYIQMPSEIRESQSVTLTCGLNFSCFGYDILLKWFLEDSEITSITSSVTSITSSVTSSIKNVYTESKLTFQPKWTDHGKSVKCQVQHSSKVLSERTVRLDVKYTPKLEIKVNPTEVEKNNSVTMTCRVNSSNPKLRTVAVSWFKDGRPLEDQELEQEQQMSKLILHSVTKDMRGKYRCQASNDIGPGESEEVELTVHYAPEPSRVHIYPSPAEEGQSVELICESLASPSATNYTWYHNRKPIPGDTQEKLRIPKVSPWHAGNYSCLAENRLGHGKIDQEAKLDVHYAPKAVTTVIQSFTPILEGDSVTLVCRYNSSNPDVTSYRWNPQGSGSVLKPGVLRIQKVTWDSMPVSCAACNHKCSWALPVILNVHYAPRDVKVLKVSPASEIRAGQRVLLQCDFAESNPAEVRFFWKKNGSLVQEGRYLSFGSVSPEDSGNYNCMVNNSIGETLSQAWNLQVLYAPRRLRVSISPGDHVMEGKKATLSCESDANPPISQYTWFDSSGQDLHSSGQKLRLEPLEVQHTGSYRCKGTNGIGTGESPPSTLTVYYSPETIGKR
Test: ELISA, coated murine CD22, 100 nM Ab
Procedure: In order to detect the binding activity of CD22 human-murine chimeric antibodies to CD22 protein, the purified human CD22-ECD-His protein obtained in Example 2 was diluted with PBS to a final concentration of 2 μg/mL, and then added to 96-well ELISA plate at 100 μl/well. The plate was sealed with plastic film and incubated overnight at 4° C., the plate was washed 2 times with PBS the next day, and then a blocking solution [PBS+2% (w/w) BSA] was added for blocking at room temperature for 2 hours. […]
Use OD450 as the unit, but write only the number.

Memo: F2.42.9 human-murine chimeric antibody (antibody, human IgG1, lambda, V domains shown, Chimeric, human IgG1 / lambda; VL tied by name) VH: QVTLKESGPGILQPSQTLSLTCSFSGFSLSTFDRGVGWIRQPSGKGLEWLAHIWWNDKKFYNPVLKSRLTISKDTSKNQVFLTIANVDSADTATYSCARIVWDKYYFDYWGQGIPLTVSS VL: QLVLTQSSSASFSLGASAKLTCTLSSQHSAYTIEWYQQQPLKPPKFVMDLKKDGSHSTGDGIPARFSGSSSGADRYLTISNIQPEDEAIYICGVGDTIKEQYVFGGGTKVTVLG , reported OD450: 0.09

Memo: F1.192.1 human-murine chimeric antibody (antibody, human IgG1, kappa, V domains shown, Chimeric, human IgG1 / kappa) VH: AVQLQQSGVELVRPGASVKLSCTGSDFNIKEDYIHWVKQRPEQGLEWIGWIDPENGDTEYASKFQGKATITADTSSNTAYLQLSSLTSEDTAVYYCATYGSLDYWGQGTTLTVSS VL: DIKMTQSPSSMYAFLGERVTITCKASQGINSFLTWFQQKPGKSPKTLIYRANRLVDGVPSRFSGSGSGQDYSLTISSLEYEDVGIYYCLQYDEFPRTFGGGTKLEIKR , reported OD450: 0.08

Memo: F2.55.1 human-murine chimeric antibody (antibody, human IgG1, lambda, V domains shown, Chimeric, human IgG1 / lambda; VL tied by name) VH: QVTLKESGPGILQPSQTLSLTCSFSGFSLSTFPLGVGWIRQPSGKGLEWLAHVWWNDDDYYNPALKSRLTISKDTSNTRVFLSVASVDTAETATYYCARLNWDRWYFDVWGTGTTVTVSS VL: QLVLTQSSSASFSLGASAKLTCTLSSQHSAYTVEWYQQQPLKPPKYVMELKKDGSHSTGDGIPDRFSGSSSGADRYLSISNIQPEDEAIYICGVGDTVKEQFVFGGGTKVTVLG , reported OD450: 0.09

Memo: F2.173.9 human-murine chimeric antibody (antibody, human IgG1, lambda, V domains shown, Chimeric, human IgG1 / lambda) VH: EVQLVESGGDLVKPGESLKLSCEASGFTFSNYAMSWVRQTPDRRLEWVATISSIGSFTYYSDSVKGRFTISRDNVKSTLHLQMNNLKSGDTAIYFCARLGVYFDSWGQGTTLTVSS VL: QLVLTQSSSASFSLGASAKLTCTLSSQHSTYTIEWYQQQPHKPPKFVMEIKKDGSHYTGDGIPDRFSGSSSGADRYLSISNIQPEDETIYICGVSDMIKDQFVYVFGGGTKVTVLG , reported OD450: 0.09

Memo: F1.250.16 human-murine chimeric antibody (antibody, human IgG1, kappa, V domains shown, Chimeric, human IgG1 / kappa; VL tied by name) VH: QVQLQQSGAEQVKPGASVKMSCKASGYTFTTYPIEWMKQNHGESLDWIGNIHPYNDDTEYNEKFKGKATLTVEKSSNTVFLELSRLTSDDSAVYYCVRGDYYNSRYWYFDVWGTGTTVTVSS VL: DIVMTQSQKFMSTTVGDRVSITCKAGQNVRTAVAWYQQKPGQSPKLLIYSASTRYIGVPERFTGSGSGTDFTLTITNMQSEDLADYFCQQYSSFPLTFGTGTKLELKR , reported OD450: 0.06

Memo: m971-hIgG1 (antibody, V domains shown, Positive control anti-human CD22 antibody; V regions from US 8,591,889 B on human IgG1 constant regions) VH: QVQLQQSGPGLVKPSQTLSLTCAISGDSVSSNSAAWNWIRQSPSRGLEWLGRTYYRSKWYNDYAVSVKSRITINPDTSKNQFSLQLNSVTPEDTAVYYCAREVTGDLEDAFDIWGQGTMVTVSS VL: DIQMTQSPSSLSASVGDRVTITCRASQTIWSYLNWYQQRPGKAPNLLIYAASSLQSGVPSRFSGRGSGTDFTLTISSLQAEDFATYYCQQSYSIPQTFGQGTKLEIKR , reported OD450: 0.11

Memo: F1.161.7 human-murine chimeric antibody (antibody, human IgG1, kappa, V domains shown, Chimeric, human IgG1 / kappa) VH: QVQLQQPGAELVKPGASVKMSCKASGYTFTSYWISWVKQRPGQGLEWIGDIYPGTGSSNYNEKFKSKATLTVDTSSSTAYMQLSSLTSEDSAVYYCARLKFEGIGYWGQGTTLTVSS VL: QIVLTQSPAIMSASLGEEITLTCSASSSVSYMHWFQQKSGTSPKLLIYSISNLASGVPSRFSGSGSGTFYSLTISSVEAEDAADYYCHQWSSYPWTFGGGTKLEIKR , reported OD450: 0.08

Memo: F1.245.2 human-murine chimeric antibody (antibody, human IgG1, kappa, V domains shown, Chimeric, human IgG1 / kappa) VH: EVQLQQSGAELVKPGASVKLSCTGSGFNIKDYYIHWVKQRTEQGLEWMGRIDPEDGETEYAPKFQDEATITSDTSSNTAYLQLSSLTYEDTAVYYCAREAAGYFYRGSSYGYFDVWGTGTTVTVSS VL: DFQMTQTTSFLSASLGDRVTISCSASQDISNYLNWYQQKPDGTVKLLIYYTSSLHSGVPSRFSGSGSGTDYSLTISNLEPEDIATYYCQQYSMLPYTFGGGTKLEMER , reported OD450: 0.09

Memo: F2.70.2 human-murine chimeric antibody (antibody, human IgG1, lambda, V domains shown, Chimeric, human IgG1 / lambda) VH: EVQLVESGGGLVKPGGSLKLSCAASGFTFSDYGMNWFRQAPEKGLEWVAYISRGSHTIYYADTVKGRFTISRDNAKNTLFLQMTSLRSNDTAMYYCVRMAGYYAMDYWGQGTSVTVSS VL: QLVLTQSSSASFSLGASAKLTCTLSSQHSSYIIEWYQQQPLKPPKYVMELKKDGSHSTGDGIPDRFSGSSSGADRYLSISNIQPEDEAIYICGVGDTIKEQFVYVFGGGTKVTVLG , reported OD450: 0.1

Memo: F2.180.16 human-murine chimeric antibody (antibody, human IgG1, lambda, V domains shown, Chimeric, human IgG1 / lambda) VH: EVKLVESGGGLVLPGGSLKISCAASGFTFSDYYMYWIRQTPDKRLEWVAYISNTGYSTFYPDSVKGRFTVSRDNAKNTLYLQMSRLQSEDTAMYYCARHGILYAMDYWGQGTSVTVSS VL: QPVLTQSSSASFSLGASAKLTCTLSSQYSTYTIGWYQQQPLKPPKYVMELKHDGSRHTGDGIPDRFSGSSSGADRYLSISNIQPEDEATYICGVGDTIKEQFMYVFGGGTKVTVLG , reported OD450: 0.05

// data source = patent US20240084003A1
